- Assay Target: PI3K-α (PIK3CA) wild-type (WT), p110α/p85α complex (Homo sapiens)
- Construct: Recombinant, catalytically active human full length PIK3KA Wild-type and H1047R mutant; 6×His (N); purchased EMD Millipore Sigma 14-602M
- Protocol Notes: PI3K-alpha kinase (PIK3CA) biochemical activity, ADP-Glo, wild-type
- Reported Conditions: Soy PI lipid substrate
- Excerpt: PI3K-Alpha Kinase (PIK3CA) Activity, Wild-Type and H1047R Mutant and Determining IC50 Values for Inhibitors Recombinant, catalytically active human full length PIK3KA Wild-type and H1047R mutant were purchased as 1:1 complex of N-terminal 6×his tagged p110α (catalytic) and untagged p85α (regulatory subunit) from EMD Millipore Sigma (cat. no. 14-602M and 14-792M, respectively). […]
pIC50: −log10 of the molar value.
Observed Property: pIC50

[
  {
    "Molecule": "Cc1cc([C@@H](C)Nc2ccccc2C(=O)O)c2oc(-c3ccc4nn(Cc5ccccc5)cc4c3)c(C)c(=O)c2c1",
    "Assay Target": "PI3K-α (PIK3CA) wild-type (WT), p110α/p85α complex (Homo sapiens)",
    "pIC50": "6.00 to 6.30"
  },
  {
    "Molecule": "Cc1cc(C(C)Nc2ccccc2C(=O)O)c2oc(-c3cc4cccnc4cn3)cc(=O)c2c1 (single isomer, unassigned)",
    "Assay Target": "PI3K-α (PIK3CA) wild-type (WT), p110α/p85α complex (Homo sapiens)",
    "pIC50": "5.30 to 6.00"
  },
  {
    "Molecule": "Cc1cc(C(C)Nc2ccccc2C(=O)O)c2oc(-c3ccc4cnn(C)c4n3)cc(=O)c2c1 (single isomer, unassigned)",
    "Assay Target": "PI3K-α (PIK3CA) wild-type (WT), p110α/p85α complex (Homo sapiens)",
    "pIC50": "6.00 to 6.30"
  },
  {
    "Molecule": "Cc1cc(C(C)Nc2ccccc2C(=O)O)c2oc(-c3c[nH]c4ccccc34)cc(=O)c2c1 (single isomer, unassigned)",
    "Assay Target": "PI3K-α (PIK3CA) wild-type (WT), p110α/p85α complex (Homo sapiens)",
    "pIC50": "5.30 to 6.00"
  },
  {
    "Molecule": "Cc1cc(C(C)Nc2ccccc2C(=O)O)c2oc(-c3ccc4c(n3)N(C)C(=O)C4)cc(=O)c2c1 (single isomer, unassigned)",
    "Assay Target": "PI3K-α (PIK3CA) wild-type (WT), p110α/p85α complex (Homo sapiens)",
    "pIC50": "5.30 to 6.00"
  }
]

Next, consider the following molecule.
Q: Please report the recorded pIC50 for Cc1cc(C(C)Nc2ccc(Cl)nc2C(=O)O)c2oc(-c3cc4ccccc4[nH]3)cc(=O)c2c1 (single isomer, unassigned) .
Ans: 6.00 to 6.30

###

- Assay Target: PI3K-α (PIK3CA) wild-type (WT), p110α/p85α complex (Homo sapiens)
- Construct: Recombinant, catalytically active human full length PIK3KA Wild-type and H1047R mutant; 6×His (N); purchased EMD Millipore Sigma 14-602M
- Protocol Notes: PI3K-alpha kinase (PIK3CA) biochemical activity, ADP-Glo, wild-type
- Reported Conditions: Soy PI lipid substrate
pIC50: −log10 of the molar value.
Observed Property: pIC50

[
  {
    "Molecule": "CC(Nc1ccc(Cl)nc1C(=O)O)c1cc(C(F)(F)F)cc2c(=O)cc(-c3cc(Cl)c4nn(C)cc4c3)oc12 (single isomer, unassigned) [Example 193]",
    "pIC50": "6.00 to 6.30"
  },
  {
    "Molecule": "Cc1cc(C(C)Nc2cccc(F)c2C(=O)O)c2oc(-c3nn(C)c4ccccc34)cc(=O)c2c1 (single isomer, unassigned) [Example 189]",
    "pIC50": "6.00 to 6.30"
  },
  {
    "Molecule": "Cc1cc(C(C)Nc2ccccc2C(=O)O)c2oc(-c3ccc4c(c3)c(C)nn4C)cc(=O)c2c1 (single isomer, unassigned) [Example 165]",
    "pIC50": "> 6.30"
  },
  {
    "Molecule": "Cc1cc(C(C)Nc2ccccc2C(=O)O)c2oc(-c3ccc4c(c3)CN(C)C4=O)c(C)c(=O)c2c1 (single isomer, unassigned) [Example 137]",
    "pIC50": "5.30 to 6.00"
  },
  {
    "Molecule": "Cc1cc([C@@H](C)Nc2ccc(F)cc2C(=O)O)c2oc(-c3ccc4nc(C)sc4n3)c(C)c(=O)c2c1 [Example 254]",
    "pIC50": "6.00 to 6.30"
  }
]

Next, consider the following molecule.
Q: Please report the recorded pIC50 for COc1ccc2nc(-c3cc(=O)c4cc(C)cc([C@@H](C)Nc5ccccc5C(=O)O)c4o3)ccc2n1 [Example 255] .
Ans: 5.30 to 6.00

###

- Assay Target: PI3K-α (PIK3CA) wild-type (WT), p110α/p85α complex (Homo sapiens)
- Construct: Recombinant, catalytically active human full length PIK3KA Wild-type and H1047R mutant; 6×His (N); purchased EMD Millipore Sigma 14-602M
- Protocol Notes: PI3K-alpha kinase (PIK3CA) biochemical activity, ADP-Glo, wild-type
- Reported Conditions: Soy PI lipid substrate
pIC50: −log10 of the molar value.
# pIC50 values compiled below

Q: Please report the recorded pIC50 for Cc1cc([C@@H](C)Nc2ccc(C)nc2C(=O)O)c2oc(-c3ccc4nc(C)cn4c3)cc(=O)c2c1 .
Ans: 5.30 to 6.00

Q: Please report the recorded pIC50 for Cc1cc([C@@H](C)Nc2ccc(Cl)nc2C(=O)O)c2oc(-c3cc4cccnc4[nH]3)c(C)c(=O)c2c1 .
Ans: > 6.30

Q: Please report the recorded pIC50 for Cc1cc(C(C)Nc2ccccc2C(=O)O)c2oc(-c3cc4cn(C)nc4cn3)cc(=O)c2c1 (single isomer, unassigned) .
Ans: 5.30 to 6.00

Q: Please report the recorded pIC50 for Cc1cc(C(C)Nc2ccccc2C(=O)O)c2oc(-c3ccc4nccn4n3)cc(=O)c2c1 (single isomer, unassigned) [Example 35] .
Ans: 5.00 to 5.30

Q: Please report the recorded pIC50 for Cc1cc(C(C)Nc2ccccc2C(=O)O)c2oc(-c3ccc4c(cnn4C)n3)c(C)c(=O)c2c1 (single isomer, unassigned) .
Ans: 5.30 to 6.00

Q: Please report the recorded pIC50 for Cc1c(-c2cc3ccccc3[nH]2)oc2c(C(C)Nc3ccccc3C(=O)O)cc(F)cc2c1=O (single isomer, unassigned) .
Ans: 6.00 to 6.30

###

- Assay Target: PI3K-α (PIK3CA) wild-type (WT), p110α/p85α complex (Homo sapiens)
- Construct: Recombinant, catalytically active human full length PIK3KA Wild-type and H1047R mutant; 6×His (N); purchased EMD Millipore Sigma 14-602M
- Protocol Notes: PI3K-alpha kinase (PIK3CA) biochemical activity, ADP-Glo, wild-type
- Reported Conditions: Soy PI lipid substrate
- Description: PI3K-Alpha Kinase (PIK3CA) Activity, Wild-Type and H1047R Mutant and Determining IC50 Values for Inhibitors Recombinant, catalytically active human full length PIK3KA Wild-type and H1047R mutant were purchased as 1:1 complex of N-terminal 6×his tagged p110α (catalytic) and untagged p85α (regulatory subunit) from EMD Millipore Sigma (cat. no. 14-602M and 14-792M, respectively). […]
Observed Property: IC50

Completed entries (count: 3):
[
  {
    "Compound": "Cc1cc(C(C)Nc2ccccc2C(=O)O)c2oc(-c3ccc4oc(=O)[nH]c4c3)cc(=O)c2c1 (single isomer, unassigned)",
    "IC50": "1000 to 5000 nM"
  },
  {
    "Compound": "Cc1cn2cc(-c3oc4c(C(C)Nc5ccccc5C(=O)O)cc(F)cc4c(=O)c3C)ccc2n1 (single isomer, unassigned) [Example 56]",
    "IC50": "> 10000 nM"
  },
  {
    "Compound": "Cc1cc(C(C)Nc2ccccc2C(=O)O)c2oc(-c3ccc4cnn(C)c4c3)cc(=O)c2c1 (single isomer, unassigned)",
    "IC50": "< 500 nM"
  }
]

Q: Please report the recorded IC50 for CC(Nc1ccccc1C(=O)O)c1cc(F)cc2c(=O)cc(-c3ccc4nn(C)cc4c3)oc12 (single isomer, unassigned) [Example 156] .
Ans: 1000 to 5000 nM

Q: Please report the recorded IC50 for Cc1cc(C(C)Nc2ccccc2C(=O)O)c2oc(-c3ccn4nncc4c3)cc(=O)c2c1 (single isomer, unassigned) .
Ans: 1000 to 5000 nM

Q: Please report the recorded IC50 for Cc1cc(C(C)Nc2ccc(Cl)c(F)c2C(=O)O)c2oc(-c3ccc4nn(C)cc4c3)cc(=O)c2c1 (single isomer, unassigned) .
Ans: 500 to 1000 nM

Q: Please report the recorded IC50 for Cc1cc(C(C)Nc2ccccc2C(=O)O)c2oc(-c3nccn4cccc34)cc(=O)c2c1 (single isomer, unassigned) .
Ans: 5000 to 10000 nM

Q: Please report the recorded IC50 for Cc1cc(C(C)Nc2ccccc2C(=O)O)c2oc(-c3cc4ccncc4o3)cc(=O)c2c1 (stereo not shown) [Example 152] .
Ans: 1000 to 5000 nM

Q: Please report the recorded IC50 for Cc1cc(C(C)Nc2ccccc2C(=O)O)c2oc(-c3ccc4c(c3)CC(=O)N4C)cc(=O)c2c1 (single isomer, unassigned) .
Ans: 1000 to 5000 nM

Q: Please report the recorded IC50 for Cc1cc(C(C)Nc2ccc(C)nc2C(=O)O)c2oc(-c3ccc4nn(C)cc4c3)c(C)c(=O)c2c1 (single isomer, unassigned) .
Ans: 500 to 1000 nM

Q: Please report the recorded IC50 for Cc1cn2cc(-c3oc4c(C(C)Nc5ccccc5C(=O)O)cc(F)cc4c(=O)c3C)ccc2n1 (single isomer, unassigned) [Example 124] .
Ans: 500 to 1000 nM

Q: Please report the recorded IC50 for Cc1cc(C(C)Nc2ccccc2C(=O)O)c2oc(-c3ccc4nn(CC(C)(C)O)cc4c3)cc(=O)c2c1 (single isomer, unassigned) .
Ans: > 10000 nM

Q: Please report the recorded IC50 for Cc1cc(C(C)Nc2cccc(F)c2C(=O)O)c2oc(-c3ccc4nn(C)cc4c3)cc(=O)c2c1 (single isomer, unassigned) [Example 172] .
Ans: < 500 nM
